Molecular target: T1, monkey (macaca fascicularis) PRLR on HEK293 cells (macaca fascicularis, UniProt A0A2K5WXK1 25-619)
T1 construct: also called mfPRLR; HEK293/mfPRLR
T1 sequence: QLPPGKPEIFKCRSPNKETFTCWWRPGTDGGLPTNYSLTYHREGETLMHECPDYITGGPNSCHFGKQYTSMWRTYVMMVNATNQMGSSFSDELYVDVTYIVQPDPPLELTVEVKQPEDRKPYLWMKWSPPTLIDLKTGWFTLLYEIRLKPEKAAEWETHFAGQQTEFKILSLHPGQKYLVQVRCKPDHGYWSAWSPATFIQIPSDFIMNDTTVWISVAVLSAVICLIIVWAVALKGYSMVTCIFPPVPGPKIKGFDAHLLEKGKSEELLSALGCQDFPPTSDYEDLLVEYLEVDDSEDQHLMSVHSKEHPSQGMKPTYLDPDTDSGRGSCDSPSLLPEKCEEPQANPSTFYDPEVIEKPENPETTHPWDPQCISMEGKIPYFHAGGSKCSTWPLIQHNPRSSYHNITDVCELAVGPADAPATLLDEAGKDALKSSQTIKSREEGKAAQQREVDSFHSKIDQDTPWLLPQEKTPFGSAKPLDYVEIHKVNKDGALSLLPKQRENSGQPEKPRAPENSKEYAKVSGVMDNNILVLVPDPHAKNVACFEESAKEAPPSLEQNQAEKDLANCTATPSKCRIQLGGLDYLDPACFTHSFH
Experiment: FACS, HEK293/mfPRLR cells; further: test concentration or dose not given here
Known FACS Cell Binding (Fold Above Background) of a selection of binders
Supply the numeric figure in fold above background, leaving out any unit text.

# count of solved cases: 4
**Q:** Find the measured FACS Cell Binding (Fold Above Background) of H1H6960N (antibody, human IgG1, V domains shown, also called H2M6960N) VH: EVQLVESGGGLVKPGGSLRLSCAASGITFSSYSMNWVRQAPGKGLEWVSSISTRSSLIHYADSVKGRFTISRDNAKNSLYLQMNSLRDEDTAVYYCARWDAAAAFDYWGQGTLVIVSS VL: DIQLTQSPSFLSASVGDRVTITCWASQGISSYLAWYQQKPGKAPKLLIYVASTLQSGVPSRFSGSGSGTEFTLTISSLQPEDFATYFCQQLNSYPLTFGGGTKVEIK and report it.
**A:** 23

**Q:** Find the measured FACS Cell Binding (Fold Above Background) of H1H6975N (antibody, human IgG1, V domains shown, also called H2M6975N) VH: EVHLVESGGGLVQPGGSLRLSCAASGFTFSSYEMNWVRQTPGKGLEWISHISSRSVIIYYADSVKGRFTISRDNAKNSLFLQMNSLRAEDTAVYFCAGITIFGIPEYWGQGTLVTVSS VL: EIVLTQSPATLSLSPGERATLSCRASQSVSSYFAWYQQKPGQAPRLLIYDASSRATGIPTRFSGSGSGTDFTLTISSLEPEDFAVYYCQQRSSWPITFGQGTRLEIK and report it.
**A:** 29

**Q:** Find the measured FACS Cell Binding (Fold Above Background) of H1H6959N2 (antibody, human IgG1, V domains shown, also called H2M6959N2) VH: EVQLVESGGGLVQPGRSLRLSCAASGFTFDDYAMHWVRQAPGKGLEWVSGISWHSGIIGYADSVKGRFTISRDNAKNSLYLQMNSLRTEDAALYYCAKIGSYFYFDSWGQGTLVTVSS VL: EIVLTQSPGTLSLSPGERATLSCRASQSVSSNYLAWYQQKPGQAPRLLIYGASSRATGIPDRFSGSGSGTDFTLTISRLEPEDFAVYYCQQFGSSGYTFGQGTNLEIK and report it.
**A:** 11

**Q:** Find the measured FACS Cell Binding (Fold Above Background) of H1H6792P (antibody, human IgG1, V domains shown, human IgG1 Fc (H1H)) VH: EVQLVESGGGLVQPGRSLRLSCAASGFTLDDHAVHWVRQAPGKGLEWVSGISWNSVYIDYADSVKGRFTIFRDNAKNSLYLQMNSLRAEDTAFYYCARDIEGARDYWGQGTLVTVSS VL: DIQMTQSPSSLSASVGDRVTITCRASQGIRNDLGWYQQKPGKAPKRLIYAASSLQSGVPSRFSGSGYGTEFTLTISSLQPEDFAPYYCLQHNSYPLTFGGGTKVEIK and report it.
**A:** 28

Shifting focus to the binder that follows.
**Q:** Find the measured FACS Cell Binding (Fold Above Background) of H1H6797P (antibody, human IgG1, V domains shown, human IgG1 Fc (H1H)) VH: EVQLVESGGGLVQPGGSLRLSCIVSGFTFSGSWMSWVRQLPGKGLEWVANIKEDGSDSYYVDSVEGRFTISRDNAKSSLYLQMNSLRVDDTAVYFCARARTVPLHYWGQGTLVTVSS VL: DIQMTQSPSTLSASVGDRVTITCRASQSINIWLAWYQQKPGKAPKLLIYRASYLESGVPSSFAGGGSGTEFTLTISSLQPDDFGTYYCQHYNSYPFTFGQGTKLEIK and report it.
**A:** 25
